Let's go through some recorded pIC50 values for RNA-directed RNA polymerase (Hepacivirus hominis) together.
Scale explanation: pIC50 corresponds to minus log10 of a concentration expressed in moles per litre.

mol.smiles	study.system	experimental.result
N#Cc1cccc(CN(C(=O)c2ccc(Cl)cc2Cl)[C@@H](Cc2ccccc2)C(=O)O)c1	RNA-directed RNA polymerase (Hepacivirus hominis)	6.10
O=C(O)CN(Cc1cccc(Br)c1)C(=O)c1ccc(Cl)cc1Cl	RNA-directed RNA polymerase (Hepacivirus hominis)	4.28
O=C(O)[C@H](Cc1ccccc1)N(Cc1cccc(Br)c1)C(=O)c1ccc(Cl)cc1Cl	RNA-directed RNA polymerase (Hepacivirus hominis)	5.46

In: Given the entry O=C(O)[C@H](Cc1ccccc1)N(Cc1cccc(Br)c1)C(=O)c1ccc(Cl)cc1 , what pIC50 was observed with RNA-directed RNA polymerase (Hepacivirus hominis)?
Out: 4.96

In: Recall the recorded pIC50 for N#Cc1ccc(CN(C(=O)c2ccc(Cl)cc2Cl)[C@@H](Cc2ccccc2)C(=O)O)cc1 with RNA-directed RNA polymerase (Hepacivirus hominis) and state it.
Sequence (O39930 whole entry): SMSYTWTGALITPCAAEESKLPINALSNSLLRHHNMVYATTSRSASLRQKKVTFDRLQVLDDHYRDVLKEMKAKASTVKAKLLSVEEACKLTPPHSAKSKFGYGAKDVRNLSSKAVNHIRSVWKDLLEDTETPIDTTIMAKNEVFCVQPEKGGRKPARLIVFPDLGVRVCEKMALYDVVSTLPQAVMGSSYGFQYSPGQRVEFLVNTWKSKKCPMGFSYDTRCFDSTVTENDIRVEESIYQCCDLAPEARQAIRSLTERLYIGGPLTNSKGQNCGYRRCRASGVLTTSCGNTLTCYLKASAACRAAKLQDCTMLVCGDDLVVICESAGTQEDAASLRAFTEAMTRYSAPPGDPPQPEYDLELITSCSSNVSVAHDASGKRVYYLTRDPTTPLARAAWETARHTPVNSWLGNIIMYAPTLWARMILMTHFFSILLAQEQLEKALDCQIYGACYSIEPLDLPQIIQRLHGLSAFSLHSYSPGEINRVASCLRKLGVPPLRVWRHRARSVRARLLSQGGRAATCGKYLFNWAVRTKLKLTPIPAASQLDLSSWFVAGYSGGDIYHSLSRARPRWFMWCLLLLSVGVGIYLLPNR
Out: 5.10

In: Recall the recorded pIC50 for O=C(O)[C@H](Cc1ccccc1)N(Cc1ccc(Br)cc1)C(=O)c1ccc(Cl)cc1Cl with RNA-directed RNA polymerase (Hepacivirus hominis) and state it.
Out: 5.04

In: Could you share what pIC50 was measured for O=C(O)[C@H](Cc1ccccc1)N(Cc1cccc([N+](=O)[O-])c1)C(=O)c1ccc(Cl)cc1Cl , tested on RNA-directed RNA polymerase (Hepacivirus hominis)?
Out: 6.15

In: Can you look up pIC50 on RNA-directed RNA polymerase (Hepacivirus hominis) for O=C(O)[C@H](Cc1ccccc1)N(Cc1cccc(C(F)(F)F)c1)C(=O)c1ccc(Cl)cc1Cl ?
Out: 5.77

In: API: value(readout= pIC50, system= RNA-directed RNA polymerase (Hepacivirus hominis), query= Cc1cccc(CN(C(=O)c2ccc(Cl)cc2Cl)[C@@H](Cc2ccccc2)C(=O)O)c1 )
Out: 5.74

In: Lookup: pIC50 / RNA-directed RNA polymerase (Hepacivirus hominis) / N#Cc1ccccc1CN(C(=O)c1ccc(Cl)cc1Cl)[C@@H](Cc1ccccc1)C(=O)O
Out: 5.22
